Entries and their Acetyl-H4 densitometric value values follow.
Tested on: acetylated H4 histone
Protocol description: Histone deacetylase inhibition: western blot for acetylated histone H4 in cells incubated 6 hours with drug
Type: cell-based, human
Conditions used: 1 μM, 6 hours; untreated = 0
Method: The new described compounds were tested for their ability to inhibit the histone deacetylase activity by western blot for the acetylated isoforms of histone H3 and H4 and also to induce growth arrest in cancer cells by activating apoptosis and/or cell differentiation. Initially, biological activities of newly synthesized HDACi were assessed by using the human acute promyelocytic leukemia cell line NB4, as the experimental model. […]
Express your answer in arbitrary units, writing the number without its unit.

The cases that follow already have their Acetyl-H4 densitometric value on record.
> print(dat)
                                   compound              reported.property  assay.result
1  CN1C(=O)CN=C(c2ccccc2)c2cc(NC(=O)CCCCCCC(=O)NO)ccc21 [Compound (III) R1 and R2 = hydrogen]  Acetyl-H4 densitometric value          2.39
2  C[C@@H]1N=C(c2ccccc2)c2cc(C#CCCCC(=O)NO)ccc2N(C)C1=O [Compound (II) S form with R1 or R2 = Me]  Acetyl-H4 densitometric value          1.33
3  CN1C(=O)C(NC(=O)CCCCCCC(=O)NO)N=C(c2ccccc2)c2ccccc21 (racemic) [Compound (IV) racemic]  Acetyl-H4 densitometric value          5.78
4  C[C@H]1N=C(c2ccccc2)c2cc(C#CCCCC(=O)NO)ccc2N(C)C1=O [Compound (II) R form with R1 or R2 = Me]  Acetyl-H4 densitometric value             0

INPUT: Request the reported Acetyl-H4 densitometric value associated with C[C@@H]1N=C(c2ccccc2)c2cc(NC(=O)CCCCCCC(=O)NO)ccc2N(C)C1=O [Compound (III) S form with R1 or R2 = Me]
OUTPUT: 3

INPUT: Try this compound too: CN1C(=O)CN=C(c2ccccc2)c2cc(C#CCCCC(=O)NO)ccc21 [Compound (II) R1 and R2 = hydrogen]
OUTPUT: 1.8

INPUT: Lookup CC1N=C(c2ccccc2)c2cc(C#CCCCC(=O)NO)ccc2N(C)C1=O (racemic) [Compound (II) racemic with R1 or R2 = Me]
OUTPUT: 1.67

INPUT: For C[C@H]1N=C(c2ccccc2)c2cc(NC(=O)CCCCCCC(=O)NO)ccc2N(C)C1=O [Compound (III) R form with R1 or R2 = Me] then?
OUTPUT: 17.78

---

Tested on: acetylated H3 histone
Protocol description: Histone deacetylase inhibition: western blot for acetylated histone H3 in cells incubated 6 hours with drug
Format: cell-based, human
Conditions used: 1 μM, 6 hours; untreated = 1
Recorded Acetyl-H3 densitometric value, one value per entry.
Write the answer as a number in arbitrary units, unit excluded.

The following molecules have reported results that may help.
> print(dat)
                                   molecule  assay.result
1  CN1C(=O)CN=C(c2ccccc2)c2cc(C#CCCCC(=O)NO)ccc21 [Compound (II) R1 and R2 = hydrogen]          2.41
2  C[C@H]1N=C(c2ccccc2)c2cc(NC(=O)CCCCCCC(=O)NO)ccc2N(C)C1=O [Compound (III) R form with R1 or R2 = Me]          4.46
3  CC1N=C(c2ccccc2)c2cc(C#CCCCC(=O)NO)ccc2N(C)C1=O (racemic) [Compound (II) racemic with R1 or R2 = Me]          3.73

Next molecule, please.
INPUT: What is its Acetyl-H3 densitometric value for acetylated H3 histone? Entry: CN1C(=O)C(NC(=O)CCCCCCC(=O)NO)N=C(c2ccccc2)c2ccccc21 (racemic) [Compound (IV) racemic]
OUTPUT: 3.17
